From: PubChem BioAssay AID1030

Molecular target: Aldehyde dehydrogenase 1A1 (Homo sapiens) (UniProt P00352)
Sequence (P00352 whole entry, looked up): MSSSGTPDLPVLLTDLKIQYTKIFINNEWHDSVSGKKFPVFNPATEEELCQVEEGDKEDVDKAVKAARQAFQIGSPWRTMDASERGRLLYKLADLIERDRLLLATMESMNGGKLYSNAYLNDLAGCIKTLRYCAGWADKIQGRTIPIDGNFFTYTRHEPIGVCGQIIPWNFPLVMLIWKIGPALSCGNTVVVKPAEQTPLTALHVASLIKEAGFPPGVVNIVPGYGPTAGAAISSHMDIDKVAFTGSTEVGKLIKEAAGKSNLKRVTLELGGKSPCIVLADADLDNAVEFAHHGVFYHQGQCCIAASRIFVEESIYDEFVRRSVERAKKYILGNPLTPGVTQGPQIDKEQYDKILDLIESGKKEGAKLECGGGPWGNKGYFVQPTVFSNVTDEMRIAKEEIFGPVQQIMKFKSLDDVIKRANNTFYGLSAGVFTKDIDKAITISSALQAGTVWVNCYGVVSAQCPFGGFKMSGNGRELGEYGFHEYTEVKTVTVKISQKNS
Test: qHTS Assay for Inhibitors of Aldehyde Dehydrogenase 1 (ALDH1A1); also: potency is read from the fitted curve at half-maximal effect
Conditions: Purified ALDH1A1, NADH fluorescence, propionaldehyde substrate; series mostly up to 75.3 µM
Screen size: about 220,000 compounds; about 16,000 (7.3%) were called active. Roughly 25% stayed inconclusive and do not appear here. Many of the other results were omitted from the sample, so actives are more common in it than they were.
test_readout: Potency

Use these answered entries as a reference point.
CC(C)[C@@H]1NC(=O)[C@H](Cc2ccccc2)NC(=O)[C@@H](CC(=O)O)NC(=O)CNC(=O)[C@H](CCCNC(=N)N)NC1=O = inactive
O=C(Nc1cccnc1)c1cc2cc(Br)ccc2oc1=O = inactive
COc1ccc(C2CC(c3cccs3)Nc3nnnn32)cc1 (stereo unspecified) = inactive
C=CCC1(CC=C)CCCN1C(=O)CC1C(=O)NCCN1Cc1ccccc1OC (stereo unspecified) = inactive
CC1=C(C(N)=O)C(c2ccc3c(c2)OCO3)n2nc(-c3cccc(C)c3)nc2N1 (stereo unspecified) = 3.55 µM (active)

Now turn to the next molecule.
Ask: Respond only with Potency recorded for `Cc1ccccc1CSc1nnc(-c2ccccc2)c(=O)[nH]1`
Reply: inactive
